- Test system: OVCAR-5 ovarian
- Measurement Protocol: NCI-60 one-dose screen, 48 h (100 = growth as untreated, 0 = no growth, -100 = all killed)
- Measurement Context: 10 µM
This is part of a sample that, as a whole, favours compounds with a hit. Of some 83,000 tested, about 20% had one in any assay. Active and inactive are the calls of the source. How the source made its calls: active means growth percent below 10; inactive means the rest.
Parameter: growth

Molecule	Parameter	Observed Measurement
COc1cc(NC(=O)c2cc(-c3ccc(F)cc3F)ccc2O)cc(OC)c1OC	growth	111% (inactive)
O=C(N=Nc1c(O)[nH]c2ccc(Br)cc12)c1ccc2nc(-c3ccccc3)[nH]c2c1	growth	-5.18% (active)
O=C(Nc1ccc(F)c(Cl)c1)c1cc(-c2ccc(F)cc2F)ccc1O	growth	0.459% (active)
COc1ccc2[nH]cc(/C=N/Nc3ccc(Br)cn3)c2c1	growth	55.3% (inactive)
CCOC(=O)N/C(=C1/OCCN1C)[P+](c1ccccc1)(c1ccccc1)c1ccccc1	growth	85.1% (inactive)
O=C1Nc2cc(Cl)ccc2/C1=C/c1cccc(OCc2ccc(Br)cc2F)c1	growth	30.2% (inactive)
CC1(c2ccccc2)NC(=O)N(CC(=O)Nc2ccc(C(=O)/C=C/c3ccc(Cl)cc3)cc2)C1=O (stereo not given)	growth	34.5% (inactive)
CC(=O)c1ccc(Nc2nc(SCCC(C)C)nc(-c3ccc(F)cc3)c2C#N)cc1	growth	53.4% (inactive)
COc1ccc(-c2nc(S(=O)(=O)c3ccc(C)cc3)c(S(=O)(=O)CC(=O)N(C)Cc3ccccc3)o2)cc1	growth	63.1% (inactive)
CC(C)C(=O)Nc1ccc(C(=O)NC(=S)Nc2ccc(C(=O)O)cc2)cc1	growth	96.6% (inactive)
Cc1cccc2cc(-c3cc(-c4ccccc4)nc(=O)[nH]3)c(Cl)nc12	growth	93% (inactive)
CONC[C@]1(C)C=C2C(=O)[C@](C)(O)C3(CC3)C(C)=C2[C@H]1O	growth	-44.2% (active)
CC(C)C1=C[C@@]23CC[C@@H]4[C@](C)(CCC[C@]4(C)C(=O)NCc4ccccc4)[C@H]2C[C@@H]1[C@H]1C(=O)OC(=O)[C@H]13	growth	93.6% (inactive)
Cc1cc2nc3c4ccccc4n(CCO)c3nc2cc1C	growth	103% (inactive)
C#CCNC(=O)[C@]12CCC(C)(C)C[C@H]1C1=CC[C@@H]3[C@@](C)(CCC#N)[C@H](C(=C)C)CC[C@@]3(C)[C@]1(C)CC2	growth	77.4% (inactive)
CC1=C(C(=O)OC(C)C)C(c2ccc(O)cc2)NC(=S)N1 (stereo not given)	growth	116% (inactive)
OCCNc1oc(-c2ccccc2)nc1[P+](c1ccccc1)(c1ccccc1)c1ccccc1	growth	31.2% (inactive)
COc1ccc2cc([C@H](C)C(=O)NCc3ccccc3)ccc2c1	growth	53.8% (inactive)
CS(=O)(=O)Nc1ccc(-c2ccc3c(c2)ncn3-c2ccc(NC(=O)Nc3ccc(Cl)c(C(F)(F)F)c3)cc2)cc1	growth	-84.9% (active)
CC1(C)CC[C@]2(C(=O)O)CC[C@]3(C)C(=CC[C@@H]4[C@@]5(C)C/C(=C/c6ccncc6)[C@H](O)C(C)(C)[C@@H]5CC[C@]43C)[C@@H]2C1	growth	67.6% (inactive)
N#Cc1ccc(-c2nn(-c3ccc(C(=O)O)cc3)cc2CNc2cccc(Br)c2)cc1	growth	99.6% (inactive)
O=C(c1ccccc1)n1ccc(-c2cc3cc(Br)ccc3oc2=O)n1	growth	34.6% (inactive)
C=C1CCC2C3(C)COC(c4cccc(F)c4)OC3CCC2(C)C1CC(O)C1=CCOC1=O (stereo not given)	growth	76.1% (inactive)
CCN1CCN(c2ccc(NC(=O)Nc3ccc(-c4cc(C(=O)NC)c5ncccc5n4)cc3)cc2C(F)(F)F)CC1	growth	-100% (active)
O=S(=O)(c1ccc(Cl)cc1)c1nc(-c2ccccc2)oc1S(=O)(=O)c1ccc(Cl)cc1	growth	101% (inactive)
